The binders listed here are annotated with their EC50.
# tgt: T1, nonhuman primate CD36 (on HEK 293 cells) (cynomolgus monkey / rhesus macaque, UniProt P16671 2-472 (human entry))
# T1 construct: also called non-human primate CD36 (cynomolgus)
# test.protocol: FACS, HEK 293 cells transiently overexpressing CD36;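 also: antibody binding to transfected cells detected by flow cytometry with a fluorescent anti-human secondary antibody, EC50 from a four-parameter sigmoidal fit of mean fluorescence intensity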
Numbers only; they are read as nM.

# binder, metric.name, result.value
records = [
    ("15G04 (antibody, human IgG1, V domains shown, Chimeric: mouse variable regions on human IgG1 LALA (L234A/L235A); also called 015G04) VH: QVQLQQSGPELVKPGASVKISCKASGYTFSTSWMNWVKQRPGQGLEWIGRIYPGDGDTNYNGKFKGKATLTADTSSSTAYMQLSSLTSVDSAVYFCAREVYYGGYEDYGMDYWGQGTSVTVSS VL: DVVMTQTPLSLPVSLGDQASISCRSSQSLLHTNVNTYLHWYLQKPGQSPKLLIYKVSNRFSGVPDRFSGSGSGTDFTLKISRVEAEDLGVYFCSQSTHVPYTFGGGTKLEIK", "EC50", 2.2),
    ("32G04 (antibody, human IgG1, V domains shown, Chimeric: mouse variable regions on human IgG1 LALA (L234A/L235A); also called 032G04) VH: EEKLEESGGGLVQPGGSMKLSCVASGFTFSNYWMNWVRQSPEKGLEWVAEIRLKSNNYATHYAESVKGRFTISRDDSKSSVYLQMNNLRAEDTGIYYCTPLLLRWGQGTTLTVSS VL: ENVLTQSPAIMSASPGEKVTMTCRASSSLSSTYLHWYQQKSGASPKLWIYSTSNLASGVPARFSGSGSGTSYSLTISSVEAEDAATYYCQQYSGYPLTFGSGTKLEIK", "EC50", 6.52),
    ("27G04 (antibody, human IgG1, V domains shown, Chimeric: mouse variable regions on human IgG1 LALA (L234A/L235A)) VH: EVQLQQSGAELLKPGASVKISCKTTGYTFSNYWIEWVKQRPGHGLEWIGEILPGSGSPKYNEKFKGKATLTADTSSNTAFMQLSSLTSEDSAVYYCAPFILENYFDYWGQGTTLTVSS VL: DIQMTQSHKFMSTSVGDRVSITCKASQDVSTAVAWYQQKPGQSPKLLIYSASYRYTGVPDRFTGSGSGTDFTFTISSVQAEDLAVYYCQQHYSTPRTFGGGTKLEIK", "EC50", 0.63),
]

Q) Give the reported value of EC50 for this record: 20G04 (antibody, human IgG1, V domains shown, Chimeric: mouse variable regions on human IgG1 LALA (L234A/L235A)) VH: QIQLVQSGPELVKPGASVKISCETSGHTFTEYTMHWVKQSHGKSLEWIGGIYPNNGATKYNQKFKGKATLTVDKSSSTAYMELRSLTSEDSAVYYCARDRYDVWFAYWGQGTLVTVSA VL: ETTVTQSPASLSVATGEKVTIRCITSTDIDDDMNWYQQKPGEPPKLLISEGNTLRPGVPSRFSSGGYGTDFVFTVENMLSEDVADYYCLQSDNLPLTFGAGTKLELK
A) 5.03

Q) Give the reported value of EC50 for this record: 14G04 (antibody, human IgG1, V domains shown, Chimeric: mouse variable regions on human IgG1 LALA (L234A/L235A); also called 014G04) VH: QVQLQQSGAELVRSGASVRLSCTASGFNIKDYYIHWVKQRPEQGLEWIGWIDPENGDTEYAPRFQDKATMTADTSSNTAYLQLSSLTSEDTAVYYCNGWLLSGNGMDYWGQGTSVTVSS VL: DIVMTQSHKFMSTSVGDRVSITCKASQDVGTAVAWYQQKPGQSPKLLIYWASTRHTGVPDRFTGSGSGTDFTLTISNVQSEDLADYFCQQYSSYPTFGGGTKLEIK
A) 0.88

Hello, the source for this data is patent US20250206836A1, in case you need it.
